Hello, the source for this data is ChEMBL document CHEMBL3875181, in case you need it.

This section presents compounds with their documented IC50 values.
Molecular target: Thymidine phosphorylase (Escherichia coli K-12)
Experiment: Inhibition of Escherichia coli K12 thymidine phosphorylase expressed in Escherichia coli preincubated for 10 mins followed by substrate addition measured up to 30 mins by spectrophotometric method
Supply the numeric figure in µM, leaving out any unit text.

INSERT INTO results (input_smiles, unit_of_measurement, recorded_result) VALUES
  ('Oc1cc(O)c(/C=N/Nc2cnc3ccccc3n2)cc1O', 'µM', 3.2);

Now take the following compound into account.
Query: Kindly state the measured IC50 obtained for "Oc1ccc(-c2nnc(S)o2)cc1" with Thymidine phosphorylase (Escherichia coli K-12).
Reply: 38.2

* * *

Biological target: Thymidine phosphorylase (Escherichia coli K-12, UniProt P07650)
Sequence (P07650 whole entry): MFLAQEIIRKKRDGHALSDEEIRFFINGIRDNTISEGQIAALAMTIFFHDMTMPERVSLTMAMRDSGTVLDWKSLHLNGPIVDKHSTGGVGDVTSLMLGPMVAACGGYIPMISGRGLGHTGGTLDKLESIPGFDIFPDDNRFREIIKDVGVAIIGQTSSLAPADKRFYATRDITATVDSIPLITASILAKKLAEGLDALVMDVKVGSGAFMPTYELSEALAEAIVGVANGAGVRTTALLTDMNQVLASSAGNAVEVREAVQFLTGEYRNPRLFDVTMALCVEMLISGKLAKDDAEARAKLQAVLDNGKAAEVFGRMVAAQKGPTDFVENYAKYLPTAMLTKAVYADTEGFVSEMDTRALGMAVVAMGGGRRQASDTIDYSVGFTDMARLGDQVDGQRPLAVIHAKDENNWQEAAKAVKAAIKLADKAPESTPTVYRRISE
Test: Inhibition of Escherichia coli K12 thymidine phosphorylase expressed in Escherichia coli using thymidine as substrate addition measured up to 20 mins by Uv-vis spectrophotometric method
observable: IC50
Kindly write the number and append the unit.

Query: Consider the compound shown here: "O=c1[nH]c(SCc2ccccc2)nc2nc(-c3ccccc3)nn12" What is its recorded IC50?
Reply: 111 µM
